Each recorded value in this set is attributed to patent US6071884A.

# activity at 0.001 µg/mL per entry
# Test system: marrow cells (mononuclear cell fraction)
# Experiment Notes: Proliferation-stimulating effect on marrow cell of mouse (3H-TdR uptake)
# Type: cell-based, mouse (BALB/c)
# Details: 10^-3 μg/ml, percentage of control, 72 h
Observation Type: activity at 0.001 µg/mL (%)

>>> reported("CCCCCCCCCCCCC/C=C/[C@@H](O)[C@H](CO[C@H]1O[C@H](CO)[C@H](O)[C@H](O)[C@H]1O)NC(=O)CCCCCCCCCCCCCCCCC [Compound 15]")
69
>>> reported("CCCCCCCCCCCCCCCCCCCCCCCC(=O)N[C@@H](CO[C@H]1O[C@H](CO)[C@H](O)[C@H](O)[C@H]1O)[C@H](O)CCCCCCCCCCC [Compound 9]")
134
>>> reported("CCCCCCCCCCCCCCCCCCCCCC[C@@H](O)C(=O)N[C@@H](CO[C@H]1O[C@H](CO)[C@H](O)[C@H](O)[C@H]1O)[C@H](O)[C@H](O)CCCCCCC [Compound 24]")
77

* * *

# Number of Blood Platelets values compiled below
# Test system: blood platelets
# Experiment Notes: Blood-platelet-increasing effect upon normal mouse
# Assay type: in vivo, mouse (BDF1)
# Details: normal mice; 6 days after 0.1 mg/kg i.v.; mean ± SD; vehicle per series 58.2, 63.0, 71.1
Observation Type: Number of Blood Platelets

>>> reported("CCCCCCCCCCCCCCCCCCCCCCCC[C@@H](O)C(=O)N[C@@H](CO[C@H]1O[C@H](CO)[C@H](O)[C@H](O)[C@H]1O)[C@H](O)[C@H](O)CCCCCCCCCCCCCC")
"124.1 ± 14.7 × 10^4 /μl"
>>> reported("CCCCCCCCCCCCC/C=C/[C@@H](O)[C@H](CO[C@H]1O[C@H](CO)[C@H](O)[C@H](O)[C@H]1O)NC(=O)CCCCCCCCCCCCC")
"88.3 ± 4.2 × 10^4 /μl"
>>> reported("CCCCCCCCCCCCCCC[C@@H](O)[C@H](CO[C@H]1O[C@H](CO)[C@H](O)[C@H](O)[C@H]1O)NC(C)=O")
"96.6 ± 3.2 × 10^4 /μl"
>>> reported("CCCCCCCCCCCCCC(=O)N[C@@H](CO[C@H]1O[C@H](CO)[C@H](O)[C@H](O)[C@H]1O)[C@H](O)CCCCCCCCCCCCC")
"87.2 ± 4.0 × 10^4 /μl"
>>> reported("CCCCCCCCCCCCCCC[C@@H](O)[C@H](CO[C@H]1O[C@H](CO)[C@H](O)[C@H](O)[C@H]1O)NC(=O)CCCCCCC")
"76.0 ± 5.1 × 10^4 /μl"
>>> reported("CCCCCCCCCCCCCCCCCCCCCCCC(=O)N[C@@H](CO[C@H]1O[C@H](CO)[C@H](O)[C@H](O)[C@H]1O)[C@H](O)[C@H](O)CCCCCCCCCCCCCC")
"114.7 ± 13.0 × 10^4 /μl"

* * *

activity at 0.001 µg/mL overview
# Tested on: marrow cells (mononuclear cell fraction)
# Experiment Notes: Proliferation-stimulating effect on marrow cell of mouse (3H-TdR uptake)
# Assay type: cell-based, mouse (BALB/c)
# Details: 10^-3 μg/ml, percentage of control, 72 h
Observation Type: activity at 0.001 µg/mL (%)

>>> reported("CCCCCCCCCCCCCCCCCCCCCCCC[C@@H](O)C(=O)N[C@@H](CO[C@H]1O[C@H](CO)[C@H](O)[C@H](O)[C@H]1O)[C@H](O)[C@H](O)CCCCCCCCCCCCCCCC")
156
>>> reported("CCCCCCCCCCCCCCCCCCCCCC[C@@H](O)C(=O)N[C@@H](CO[C@H]1O[C@H](CO)[C@H](O)[C@H](O)[C@H]1O)[C@H](O)[C@H](O)CCCCCCCCCCCCCC")
84
>>> reported("CCCCCCCCCCCCCCCCCCCCCC[C@@H](O)C(=O)N[C@@H](CO[C@H]1O[C@H](CO)[C@H](O)[C@H](O)[C@H]1O)[C@H](O)[C@H](O)CCCCCCCCCCCCC")
104
>>> reported("CCCCCCCCCCCCCCCCCCCCCC[C@H](O)C(=O)N[C@@H](CO[C@H]1O[C@H](CO)[C@H](O)[C@H](O)[C@H]1O)[C@H](O)[C@H](O)CCCCCCCCCCCCC")
130
>>> reported("CCCCCCCCCCCCCCCCCCCCCCCCCCCC(=O)N[C@@H](CO[C@H]1O[C@H](CO)[C@H](O)[C@H](O)[C@H]1O)[C@H](O)[C@H](O)CCCCCCCCCCCCC")
150
>>> reported("CCCCCCCCCCCCCCCCCCCCCCCC(=O)N[C@@H](CO[C@H]1O[C@H](CO)[C@H](O)[C@H](O)[C@H]1O)[C@H](O)[C@H](O)CCCCCCCCCCC")
129
>>> reported("CCCCCCCCCCCCCCCCCCCCCCCC[C@@H](O)C(=O)N[C@@H](CO[C@H]1O[C@H](CO)[C@H](O)[C@H](O)[C@H]1O)[C@H](O)[C@H](O)CCCCCCCCCCCCCCC")
156
>>> reported("CCCCCCCCCCCCCCCCCCCCCC[C@@H](O)C(=O)N[C@@H](CO[C@H]1O[C@H](CO)[C@H](O)[C@H](O)[C@H]1O)[C@H](O)[C@H](O)CCCCCCCCCCC")
81
>>> reported("CCCCCCCCCCCCCCCCCCCCCCCC(=O)N[C@@H](CO[C@H]1O[C@H](CO)[C@H](O)[C@H](O)[C@H]1O)[C@H](O)[C@H](O)CCCCCCCCCCCCC")
159
>>> reported("CCCCCCCCCCCCCCCCCC(=O)N[C@@H](CO[C@H]1O[C@H](CO)[C@H](O)[C@H](O)[C@H]1O)[C@H](O)CCCCCCCCCCCCCCC")
151
>>> reported("CCCCCCCCCCCCCCCCCCCCCCCC(=O)N[C@@H](CO[C@H]1O[C@H](CO)[C@H](O)[C@H](O)[C@H]1O)[C@H](O)CCCCCCCCCCCCCCC")
134

* * *

# Tested on: marrow cells (mononuclear cell fraction)
# Experiment Notes: Proliferation-stimulating effect on marrow cell of mouse (3H-TdR uptake)
# Format: cell-based, mouse (BALB/c)
# Details: 10^-1 μg/ml, percentage of control, 72 h
Overview of reported activity at 0.1 µg/mL across a group of compounds:
Observation Type: activity at 0.1 µg/mL

>>> reported("CCCCCCCCCCCCCCC[C@@H](O)[C@H](CO[C@H]1O[C@H](CO)[C@H](O)[C@H](O)[C@H]1O)NC(C)=O")
"232%"
>>> reported("CCCCCCCCCCCCCCCCCCCCCC[C@@H](O)C(=O)N[C@@H](CO[C@H]1O[C@H](CO)[C@H](O)[C@H](O)[C@H]1O)[C@H](O)[C@H](O)CCCCCCC")
"197%"
>>> reported("CCCCCCCCCCCCCCCCCCCCCCCC(=O)N[C@@H](CO[C@H]1O[C@H](CO)[C@H](O)[C@H](O)[C@H]1O)[C@H](O)[C@H](O)CCCCCCCCCCCCCC")
"495%"
>>> reported("CCCCCCCCCCCCCCCCCCCCCCCCCC(=O)N[C@@H](CO[C@H]1O[C@H](CO)[C@H](O)[C@H](O)[C@H]1O)[C@H](O)[C@H](O)CCCCCCCCCCCCCC")
"460%"

* * *

# Experiment Notes: Life-span-increasing effect on irradiation of a lethal dose of radiation
# Type: in vivo, mouse (BDF1)
# Details: day 15; 10 mice/group; 9 Gy X-ray; 0.1 mg/kg i.v. days 0, 4, 8; controls per series 8, 9, 5, 5, 7, 1
Observation Type: Number of Surviving Mice (mice)

>>> reported("CCCCCCCCCCCCCCCCCC(=O)N[C@@H](CO[C@H]1O[C@H](CO)[C@H](O)[C@H](O)[C@H]1O)[C@H](O)CCCCCCCCCCCCCCC")
10
>>> reported("CCCCCCCCCCCCCCC[C@@H](O)[C@H](CO[C@H]1O[C@H](CO)[C@H](O)[C@H](O)[C@H]1O)NC(C)=O")
5
>>> reported("CCCCCCCCCCCCCCCCCCCCCCCC[C@@H](O)C(=O)N[C@@H](CO[C@H]1O[C@H](CO)[C@H](O)[C@H](O)[C@H]1O)[C@H](O)[C@H](O)CCCCCCCCCCCCCCCC")
10
>>> reported("CCCCCCCCCCCCCCCCCCCCCCCC[C@@H](O)C(=O)N[C@@H](CO[C@H]1O[C@H](CO)[C@H](O)[C@H](O)[C@H]1O)[C@H](O)[C@H](O)CCCCCCCCCCCCCCC")
9
>>> reported("CCCCCCCCCCCCCCCCCCCCCCCC(=O)N[C@@H](CO[C@H]1O[C@H](CO)[C@H](O)[C@H](O)[C@H]1O)[C@H](O)CCCCCCCCCCCCCCC")
10
